# studyTarget: T1, soluble human β-Klotho (Biacore, Example 8) (human, UniProt Q86Z14 53-996, limits assumed)
# T1 construct: also called soluble β-Klotho
# protocol: Biacore competition binning; test antibody injected over soluble receptor captured on immobilized 24H11, 17D8 or 1A2.1
reportedProperty: binding result

Quote binding result reported for 26H11 (antibody, human IgG2, kappa, V domains shown, fully human monoclonal antibody; full chains H7/L6; also called 26H11.1) VH: EVQLLESGGGLVQPGGYLRLSCAASGFTFSTYAMSWVRQAPGKGLEWVSAISGSGVSTNYADSVKGRFTISRDNSKNTLYLQMNSLRAEDTAVYYCAKSLIVVMVYVLDYWGQGTLVTVSS VL: EIVLTQSPGTLSLSPGERATLSCRASQSVSGNYLAWYQQKPGQAPRLLIYGASSRATGIPDRFSGSGSGTDFTLTISRLEPEDFAMYYCQQYGSSPLTFGGGSKVEIKR please. binds

Quote binding result reported for 20D4 (antibody, human IgG2, kappa, V domains shown, fully human monoclonal antibody; full chains H12/L12; also called 20D4.1) VH: QVQLVQSGAEVKKPGASVKVSCKVSGYTLTDLSMHWVRQAPGKGLEWMGGFDPEDGETIYAQKFQGRITMTEDTSTDTAYMELSSLRSEDTAVYYCASIVVVPAAIQSYYYYYGMGVWGQGTTVTVSS VL: DIQLTQSPSSLSASIGDRVTITCRASQDIRYDLGWYQQKPGKAPKRLIYAASSLQSGVPSRFSGSGSGTEFTLTVSSLQPEDFATYYCLQHNSYPLTFGGGTKVEIER please. binds
